- TEST_SYSTEM: human TREM2/DAP12 fusion protein (human, UniProt O43914 41-113, limits assumed)
- Sequence (O43914 other isoform, or with tags, fused parts or gaps limits assumed): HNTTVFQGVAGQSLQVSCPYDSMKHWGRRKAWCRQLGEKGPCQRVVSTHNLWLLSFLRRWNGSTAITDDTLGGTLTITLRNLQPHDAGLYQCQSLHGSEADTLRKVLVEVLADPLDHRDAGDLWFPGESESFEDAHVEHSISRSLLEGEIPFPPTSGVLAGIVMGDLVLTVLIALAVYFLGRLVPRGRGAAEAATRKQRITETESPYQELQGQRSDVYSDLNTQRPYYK
- EXPERIMENT_DESCRIPTION: cell-based or functional assay
PROPERTY_NAME: Luciferase activation soluble 10 nM IgG, FOC (FOC)
Answers are plain numbers, in FOC.

Answered cases to consult:
{"BINDER": "AL2p-37 (antibody, IgG1, V domains shown, Fab and IgG formats under one id; also called AL2p-37 huIgG1) VH: QVQLVQSGAEVKKPGASVKVSCKASGYAFSSQWMNWVRQAPGQRLEWIGRIYPGGGDTNYAGKFQGRVTITADTSASTAYMELSSLRSEDTAVYYCARLLRNQPGESYAMDYWGQGTLVTVSS VL: DVVMTQSPDSLAVSLGERATINCRSSQSLVHSNGYTYLHWYQQKPGQSPKLLIYKVSNRFSGVPDRFSGSGSGTDFTLTISSLQAEDVAVYYCSQSTRVPYTFGGGTKVEIK", "READOUT_VALUE": 2.16}
{"BINDER": "AL2p-33 (antibody, V domains shown, Fab and IgG formats under one id) VH: EVQLVQSGAEVKKPGSSVKVSCKASGYAFSSSWMNWVRQAPGQGLEWMGRIYPGDGDTNYAQKFQGRVTITADESTSTAYMELSSLRSEDTAVYYCARLLRNQPGESYAMDYWGQGTLVTVSS VL: GVVMAQTPLSLSVTPGQPASISCRTSQSLVHSNGYTYLHWYLQKPGQSPQLLIYKVSNRVSGVPDRFSGSGSGTDFTLKISRVEAEDVGVYYCSQSTRVPYTFGQGTKLEIK", "READOUT_VALUE": 1.72}

The following binders each have a reported value; give each one's Luciferase activation soluble 10 nM IgG, FOC.
1. AL2p-19 (antibody, V domains shown, Fab and IgG formats under one id) VH: QVQLVQSGAEVKKPGSSVKVSCKASGYAFSSHWMNWVRQAPGQGLEWMGRIYPGDGDTNYARKFQGRVTITADESTSTAYMELSSLRSEDTAVYYCARLLRNQPGESYAMDYWGQGTLVTVSS VL: DVVMTQTPLSLSVTPGQPASISCRSSRSLVHSNGYTYLHWYLQKPGQSPQLLIYKVSNRVSGVPDRFSGSGSGTDFTLKISRVEAEDVGVYYCSQSTRVPYTFGQGTKLEIK
2. AL2p-31 (antibody, V domains shown, Fab and IgG formats under one id) VH: QVQLVQSGAEVKKPGSSVKVSCKASGYAFSSQWMNWVRQAPGQGLEWMGRIYPGGGDTNYARKFQGRVTITADESTSTAYMELSSLRSEDTAVYYCARLLRNQPGESYAMDYWGQGTLVTVSS VL: GVVMTQTPLSLSVTPGQPASISCRSSQSLVHSNGYTYLHWYLQKPGQSPQLLIYKVSNRRSGVPDRFSGSGSGTDFTLKISRVEAEDVGVYYCSQSTRVPYTFGQGTKLEIK
3. AL2p-27 (antibody, V domains shown, Fab and IgG formats under one id) VH: QVQLVQSGAEVKKPGSSVKVSCKASGYAFSSHWMNWVRQAPGQGLEWMGRIYPGQGDTNYAQKFQGRVTITADESTSTAYMELSSLRSEDTAVYYCARLLRNQPGESYAMDYWGQGTLVTVSS VL: GVVMTQTPLSLSVTPGQPASISCRSSRSLVHSNGYTYLHWYLQKPGQSPQLLIYKVSNRVSGVPDRFSGSGSGTDFTLKISRVEAEDVGVYYCSQSTRVPYTFGQGTKLEIK

Response line:
1. 2.06
2. 2.83
3. 2.06
